tested_target: furin, P09958;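 note: purified furin at 1:10 enzyme:substrate in 50 mM HEPES pH 7.5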
Sequence (P09958 whole entry): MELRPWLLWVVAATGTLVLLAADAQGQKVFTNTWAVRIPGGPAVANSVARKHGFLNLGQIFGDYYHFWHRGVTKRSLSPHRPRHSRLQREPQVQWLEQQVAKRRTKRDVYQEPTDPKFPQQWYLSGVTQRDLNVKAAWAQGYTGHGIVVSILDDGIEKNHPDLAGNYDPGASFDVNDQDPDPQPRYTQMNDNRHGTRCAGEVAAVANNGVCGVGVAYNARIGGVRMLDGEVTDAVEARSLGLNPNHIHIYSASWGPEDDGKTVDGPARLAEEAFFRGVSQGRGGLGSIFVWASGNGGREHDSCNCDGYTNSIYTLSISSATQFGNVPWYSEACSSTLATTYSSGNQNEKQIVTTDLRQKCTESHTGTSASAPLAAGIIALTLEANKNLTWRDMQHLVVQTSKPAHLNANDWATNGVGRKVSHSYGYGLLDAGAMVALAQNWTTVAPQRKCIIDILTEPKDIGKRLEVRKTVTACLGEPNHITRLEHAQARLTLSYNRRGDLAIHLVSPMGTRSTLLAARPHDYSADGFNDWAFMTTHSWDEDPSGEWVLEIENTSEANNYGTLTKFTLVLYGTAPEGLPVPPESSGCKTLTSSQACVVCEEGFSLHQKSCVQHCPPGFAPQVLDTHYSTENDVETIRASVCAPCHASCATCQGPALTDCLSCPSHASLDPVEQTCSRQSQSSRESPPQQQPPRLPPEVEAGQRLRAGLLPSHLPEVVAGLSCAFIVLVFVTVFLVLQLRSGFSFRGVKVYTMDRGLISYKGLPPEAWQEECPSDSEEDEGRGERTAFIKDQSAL
procedure_details: furin cleavage Z-score vs untreated control; higher = more cleavage, active = 3.5 or more, inactive = 1 or less, 8 variable residues between constant flanks
measurement_parameters: 15 min
The other results are listed elsewhere or left out. How many sequences the whole screen found active is unknown.
Label scheme for furin cleavage Z-score: lower than -0.7 is not satisfied, -0.7 and above is satisfied.

Some solved cases for reference:
                       residues          group
0   CASGPCSAHLAGNASASA [HC2496]      satisfied
1   CAGNITRVESAGNASASA [HC1280]      satisfied
2  CARANRIVNAAGNASASA [FS-2392]  not satisfied

Check if furin cleavage Z-score >= -0.7 (inclusive). Item: CAEVVTSEWVAGNASASA [HC2212]
not satisfied

Check if furin cleavage Z-score >= -0.7 (inclusive). Item: CAYTPCSAHLAGNASASA [HC2469]
not satisfied

Check if furin cleavage Z-score >= -0.7 (inclusive). Item: CAEVVSSTWVAGNASASA [HC135]
not satisfied

Check if furin cleavage Z-score >= -0.7 (inclusive). Item: CADEVDGVDEAGNASASA [CS2]
not satisfied

Taken from the supplement of paper PMC3545927.
